System Name: BRD4 BD2 (Homo sapiens, UniProt O60885)
Construct: BD2 TE
Experiment: Target Engagement Intracellular BET BRD Assay (NanoBRET)
Condition Set: read-out: BRD4 BD2 TE IC50
pIC50: −log10 of the molar value.
Readout: pIC50

# count of solved cases: 2
* Cn1ccn(-c2ccc(-c3ccnc(-c4cccc(N5CCN(C(C)(C)C)CC5)c4)c3O)cc2Cl)c1=O | 7.16
* Cc1cc(-c2ccc(-n3ccn(C)c3=O)c(F)c2)c(O)c(-c2cccc(N3CCN(C(C)(C)C)CC3)c2)n1 | 7.89

a: Cn1ccn(-c2ccc(-c3cc(F)nc(-c4cccc(N5CCN(C(C)(C)C)CC5)c4)c3O)cc2Cl)c1=O
b: Cc1cc(-c2ccc(-n3ccn(C)c3=O)c(Cl)c2)c(O)c(-c2ccc(F)c(N3CCN(C(C)(C)C)CC3)c2)n1
c: Cc1cc(-c2ccc(-n3ccn(C)c3=O)c(Cl)c2)c(O)c(-c2cc(F)cc(N3CCN(C(C)(C)C)CC3)c2)n1
**Q:** # rank_down: sort by pIC50, max first Output spec: labels arranged per the requested ranking.
**A:** c, b, a
(c: 8.37, b: 7.96, a: 7.08)

----------
Test system: MCP-1
Experiment: PBMC MCP-1 HTRF Assay
Assay type: cell-based
Condition Set: LPS 200 ng/mL, 24 hours
Readout: IC50 (nM)

# count of solved cases: 3
- Cn1ccn(-c2ccc(-c3cc(F)cc(-c4cccc(N5CCN(C(C)(C)C)CC5)c4)c3O)cc2Cl)c1=O [Example I-1]: 1.51
- Cc1cc(-c2ccc(-n3ccn(C)c3=O)c(Cl)c2)c(O)c(-c2cc(N3CCN(C(C)(C)C)CC3)n(C)c(=O)c2)n1 [Example I-9]: 66.3
- Cc1cc(-c2ccc(-n3ccn(C)c3=O)c(F)c2)c(O)c(-c2cccc(N3CCN(C(C)(C)C)CC3)c2)n1 [Example I-8]: 5.39

P: [2H]C([2H])([2H])n1ccn(-c2ccc(-c3cc(C)nc(-c4cccc(N5CCN(C(C)(C)C)CC5)c4)c3O)cc2Cl)c1=O [Example I-4]
Q: Cn1ccn(-c2ccc(-c3ccnc(-c4cccc(N5CCN(C(C)(C)C)CC5)c4)c3O)cc2Cl)c1=O [Example I-14]
**Q:** Between the two listed entries P and Q , which has its IC50 at the higher number? Please identify the chosen entry by its label.
**A:** Q
